The values you see were collected from patent US20220348674A1.

# target: T1, purified recombinant human CD40 protein (human, UniProt P25942 21-193)
# T1 construct: also called recombinant CD40
# T1 sequence (P25942 21-193 limits assumed): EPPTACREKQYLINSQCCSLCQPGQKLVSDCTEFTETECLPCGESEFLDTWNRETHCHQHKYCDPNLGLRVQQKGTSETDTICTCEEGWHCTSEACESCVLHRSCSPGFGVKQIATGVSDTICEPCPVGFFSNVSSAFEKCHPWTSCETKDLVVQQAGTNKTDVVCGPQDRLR
# experiment summary: ELISA on coated recombinant human CD40; chimeric antibody supernatant
# Description: ELISA plate was coated with purified recombinant CD40 protein in coating buffer at lug/ml overnight. After washed for 3 times, the plate was blocked with 1% BSA, and then cell culture supernatants containing rabbit-human chimeric CD40 antibodies were added to the plate. For detection of the antibody binding to CD40 protein, goat anti-human Fc polyclonal antibody conjugated to alkaline phosphatase was used.
measured property: OD405 (OD405)
Report as a plain number; the unit OD405 is understood.

For orientation, consider the following solved cases.
{"binder": "6G8 rabbit-human chimeric anti-CD40 antibody (antibody, V domains shown, tested as cell culture supernatant) VH: QSVEESGGRLVTPGTPLTLTCTASGFSLSTYYMTWVRQAPGKGLEAIGYINTGGSTYYASRAKGRFTISKTSTTVDLKMTSPTTEDTATYFCARADASEHNYNGLNIWGPGTLVTVSS VL: DIVMTQTPASVSEPVGGTVTIKCQASESISSNLAWYQQKPGQPPKFLIYRASTLASGVPSRFKGSGFGTQFTLTISDLECADAATYYCQSNYGSISSSYGNAFGGGTEVVVK", "meas value": 1.77}
{"binder": "6H9 rabbit-human chimeric anti-CD40 antibody (antibody, V domains shown, tested as cell culture supernatant) VH: QSLEESGGRLVTPGTPLTLTCTVSGIDLSSYAMGWVRQAPGKGLEYIGVIASNSGISYYATWAEGRFTISKASTTVDLKITSPTTEDTATYFCVRGYIGDGALWGPGTLVTVSS VL: AVLTQTPSSVSAAVGGTVTINCQSSKTVYYNNWLAWYQQKPGQPPKLLIYRASTLASGVPSRFKGSGSGTQFTLTISDVQCDDATTYYCAGGFSSDSDTTFGGGTEVVVK", "meas value": 1.97}
{"binder": "3B12 rabbit-human chimeric anti-CD40 antibody (antibody, V domains shown, tested as cell culture supernatant) VH: QSLEESGGRLVTPGTPLTLTCTVSGIDLSSYAMGWVRQAPGKGLEYIGVIASNSGISYYATWAEGRFTISKASTTVDLKITSPTTEDTATYFCVRGYIGDGALWGPGTLVTVSS VL: AVLTQTPSSVSAAVGGTVTINCQSSKTVYYNNWLAWYQQKPGQPPKLLIYRASTLASGVPSRFKGSGSGTQFTLTISDVQCDDATTYYCAGGFSSDSDTTFGGGTEVVVK", "meas value": 1.57}
{"binder": "7G6 rabbit-human chimeric anti-CD40 antibody (antibody, V domains shown, tested as cell culture supernatant) VH: QSLEESGGRLVTPGGSLTLTCTVSGIDLSTNGMGWVRQGPGKGLEWIGTIRVTGGTDYATWAKGRFTISKTSSTTVDLKMTSPTTEDTATYFCARGHANNDAYVYFNLWGQGTLVTVSS VL: AFELTQTPASVEAGVGGTVTIKCQASQSIDRYLAWYQQKPGQPPKLLISYTSTLTSGVPSRFKGSGSGTEFTLTISDLECADAATYYCQSYFTSDDANTFGGGTEVVVK", "meas value": 1.82}
{"binder": "2B8 rabbit-human chimeric anti-CD40 antibody (antibody, V domains shown, tested as cell culture supernatant) VH: QSLEESGGRLVTPGTPLTLTCTVSGIDLSSYAMGWVRQAPGKGLEYIGVIASNSGISYYATWAEGRFTISKASTTVDLKITSPTTEDTATYFCVRGYIGDGALWGPGTLVTVSS VL: AVLTQTPSSVSAAVGGTVNIGCQSSKSVYYNNWLAWYQQKPGQPPKLLIYRASTLASGVPSRFKGSGSGTQFTLTISDVQCADATTYYCAGGYSSDSDTTFGGGTEVVVK", "meas value": 1.64}
{"binder": "4B7 rabbit-human chimeric anti-CD40 antibody (antibody, V domains shown, tested as cell culture supernatant) VH: QSVKESEGGLFKPTDTLTLTCTVSGFTLSNYRVIWVRQAPGNGLEWIGGIDRSAVAYYASWAKSRSTITRNTNLNTVTLKMTSLTAADTATYFCARDTDYTSGGIWGPGTLVTVSS VL: DIVMTQTPSSVSAAVGGTVTIKCQASQNIGGNLAWYQQKPGQPPKLLIYGSSTLESGVPSRFSGSGSGTEYTLTISDLQCADAATYYCQSNYWSRSSSYVNSFGGGTEVVVK", "meas value": 1.72}
{"binder": "5F9 rabbit-human chimeric anti-CD40 antibody (antibody, V domains shown, tested as cell culture supernatant in the ELISA) VH: QSVEESGGRLVTPGTPLTLTCTASGFSLIGYVMGWFRQAPGKGLEYIGWISFGGDPYYASWVKGRFTISKTSTTVDLKMTSLTTEDTATYFCARSTYGDIWGPGTLVTVSS VL: DIVMTQTPASVEAAVGGTVTIKCQASQSISSRLAWYQLKPGQPPKLLIYSASTLASGVPSRFKGSGSGTEFTLTISDLECADAATYYCQNHGYATSESYTNTFGGGTEVVVK", "meas value": 1.83}

# context switch: different binder, same OD405
Which OD405 value belongs to 1D3 rabbit-human chimeric anti-CD40 antibody (antibody, V domains shown, tested as cell culture supernatant) VH: QSLEESGGRLVTPGTPLTLTCTASGFSLSNYHMCWVRQAPGKGLEWIGYNSYGGSAYYASWAKGRFTISKTSTTVDLKITRPTTEDTATYFCARAYLDYNGDMGFALWGPGTLVTVSS VL: EVVMTQTPSSVSAAVGGTVTFKCQASQSISSYLSWYQQKPGQPPKLLIYRASTLESGVPSRFKGSGSGTQFTLTISDLECADAATYYCQTNYYDSGNTYGTFGGGTEVVVK ? 1.51
